B1: RPAIN (parent)
chain: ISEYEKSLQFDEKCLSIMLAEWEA

# Variants of: B1
# Protocol description: protein stability index of a GFP-peptide fusion (GPS, HEK-293T) (PSI 1-6); higher = more stable;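 note: lentivirally expressed fusions sorted by FACS into six bins by GFP to DsRed ratio, PSI derived from sequencing read proportions per bin multiplied by bin number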
# Measurement context: c terminus: a fixed tail appended
Property name: protein stability index
# print the numeric value only

Input line: Dear colleague, I am looking for the recorded protein stability index of the following variant: `S7K`
Output line: 1.38

Input line: Same for `S2A`
Output line: 2.2

Input line: Same for `E21Y`
Output line: 1.93

Input line: Same for `L8W`
Output line: 2.9

Input line: Same for `A20E`
Output line: 1.98

Input line: Same for `L19G`
Output line: 3.04

Input line: Same for `I1P`
Output line: 2.04

Input line: Same for `Y4L`
Output line: 2.33

Input line: Same for `E23Q`
Output line: 2.06

Input line: Same for `L15S`
Output line: 3.92

Input line: Same for `K6T`
Output line: 1.92

Where do the numbers come from? From the supplement of paper PMC10567573.
